# credit: patent US20030068675

Biological target: T1, ZFP SBS#834 (synthetic)
T1 chain: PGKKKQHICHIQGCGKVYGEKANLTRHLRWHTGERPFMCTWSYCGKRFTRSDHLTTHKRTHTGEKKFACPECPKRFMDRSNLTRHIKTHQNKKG
Test: EMSA
Conditions: tags: MBP fusion
quantity_name: pKd
# log scale: pKd equals minus log10 of the concentration in mol/L

query: Fill blank: measured pKd of the binder GACTAGGACC (dsDNA) DNA 1: GACTAGGACC DNA 2: GGTCCTAGTC is ____.
result: 6.73
